assay: Bioavailability test in vivo in cynomolgus monkey (pharmacokinetics, IV and PO); settings: male, cynomolgus monkey, plasma; cynomolgus monkeys, iv, 3 mg/kg
metric name: Cmax (ng/mL)

[a] C=CCn1c(=O)c2cnc(Nc3ccc(C4CCC(N5CCC5)CC4)cc3)nc2n1-c1cccc(C(C)(C)O)n1 (single isomer, unassigned) [Compound I-8-1]
[b] C=CCn1c(=O)c2cnc(Nc3ccc(N4CCN(C)CC4)cc3)nc2n1-c1cccc(C(C)(C)O)n1 [Control 1, reference compound]
// pick min by Cmax: a , b Pick one and reply with its label. a

---

assay: Bioavailability test in vivo in mice (pharmacokinetics, iv and intragastric); design: species or system ICR mice; details: ICR, mouse, plasma, iv, 3 mg/kg
metric name: Tmax (min)

Some molecules with recorded Tmax:
molecule="C=CCn1c(=O)c2cnc(Nc3ccc(C4CCC(N5CCC5)CC4)cc3)nc2n1-c1cccc(C(C)(C)O)n1 (single isomer, unassigned) [Compound I-8-1]" metric_name=Tmax measured=1.8
molecule="C=CCn1c(=O)c2cnc(Nc3ccc(C4CCC(N(C)C)CC4)cc3)nc2n1-c1cccc(C(C)(C)O)n1 (single isomer, unassigned) [Compound I-1-1]" metric_name=Tmax measured=1.8
molecule="C=CCn1c(=O)c2cnc(Nc3ccc4c(c3)CCC(N(C)C)C4)nc2n1-c1cccc(C(C)(C)O)n1 (centres unmarked) [Control 2, reference compound]" metric_name=Tmax measured=1.8

[P] C=CCn1c(=O)c2cnc(Nc3ccc(C4CCC(N5CCC5)CC4)cc3)nc2n1-c1cccc(C(C)(C)O)n1 (centres unmarked) [Compound I-8]
[Q] C=CCn1c(=O)c2cnc(Nc3ccc(N4CCN(C)CC4)cc3)nc2n1-c1cccc(C(C)(C)O)n1 [Control 1, reference compound]
Endpoint returns whichever of P and Q has the numerically higher Tmax. Pick one and reply with its label. Q
(Q: 3 min, P: 1.8 min)

---

This document collects IC50 values reported for WEE1 kinase (Homo sapiens).
metric name: IC50 (nM)

molecule="C=CCn1c(=O)c2cnc(Nc3ccc(C4CCC(C#N)CC4)cc3)nc2n1-c1cccc(C2(O)COC2)n1 (stereo not drawn)" system_name="WEE1 kinase (Homo sapiens)" metric_name=IC50 measured=1.68

[a] C=CCn1c(=O)c2cnc(Nc3ccc(C4CCC(N(C)C)CC4)cc3)nc2n1-c1cccc(C(C)(C)O)n1 (single isomer, unassigned)
[b] C=CCn1c(=O)c2cnc(Nc3ccc(C4CCC(NS(C)(=O)=O)CC4)cc3)nc2n1-c1cccc(C(C)(C)O)n1 (stereo not drawn)
[c] C=CCn1c(=O)c2cnc(Nc3ccc(C4CCC(C(=O)N(C)C)CC4)cc3)nc2n1-c1cccc(C(C)(C)O)n1 (stereo not drawn)
[d] C=CCn1c(=O)c2cnc(Nc3ccc(C4CCC(N5CCCC5)CC4)cc3)nc2n1-c1cccc(C(C)(C)O)n1 (single isomer, unassigned)
Order field: IC50 | Direction: descending (largest first) Write the labels out in the order the request specifies. c, b, a, d
(c: 6.76 nM, b: 3.89 nM, a: 1.9 nM, d: 0.66 nM)

[I] C=CCn1c(=O)c2cnc(Nc3ccc(C4CCC(N5CCOC5=O)CC4)cc3)nc2n1-c1cccc(C2(O)COC2)n1 (stereo not drawn)
[II] C=CCn1c(=O)c2cnc(Nc3ccc(C4CCC(NC)CC4)cc3)nc2n1-c1cccc(C2(O)COC2)n1 (stereo not drawn)
// pick min by IC50: I , II Pick one and reply with its label. I

[a] C=CCn1c(=O)c2cnc(Nc3ccc(C4CCC(N5CCC5)CC4)cc3)nc2n1-c1cccc(C(C)(C)O)n1 (single isomer, unassigned) [Compound I-8-2]
[b] C=CCn1c(=O)c2cnc(Nc3ccc(C4CCC(N5CCC5)CC4)cc3)nc2n1-c1cccc(C(C)(C)O)n1 (stereo not drawn) [Compound I-8]
Endpoint returns whichever of a and b has the numerically higher IC50. Pick one and reply with its label. a

[A] C=CCn1c(=O)c2cnc(Nc3ccc(C4CCC(N5CCOCC5)CC4)cc3)nc2n1-c1cccc(C(C)(C)O)n1 (stereo not drawn)
[B] C=CCn1c(=O)c2cnc(Nc3ccc(C4CCC(C(=O)NC5CC5)CC4)cc3)nc2n1-c1cccc(C(C)(C)O)n1 (stereo not drawn)
Endpoint returns whichever of A and B has the numerically higher IC50. Pick one and reply with its label. B
(B: 4.05 nM, A: 2.57 nM)

[A] C=CCn1c(=O)c2cnc(Nc3ccc4c(c3)CCC(N(C)C)C4)nc2n1-c1cccc(C(C)(C)O)n1 (stereo not drawn) [Control 2, reference compound]
[B] C=CCn1c(=O)c2cnc(Nc3ccc(C4CCC(=NOC)CC4)cc3)nc2n1-c1cccc(C(C)(C)O)n1 (stereo not drawn)
Endpoint returns whichever of A and B has the numerically higher IC50. Pick one and reply with its label. B
(B: 7.39 nM, A: 1.98 nM)

[1] C=CCn1c(=O)c2cnc(Nc3ccc(C4CCC(C(=O)OCC)CC4)cc3)nc2n1-c1cccc(C2(O)COC2)n1 (stereo not drawn)
[2] C=CCn1c(=O)c2cnc(Nc3ccc(C4CCC(C#N)CC4)cc3)nc2n1-c1cccc(C(C)(C)O)n1 (stereo not drawn)
// pick min by IC50: 1 , 2 Pick one and reply with its label. 2
(2: 0.71 nM, 1: 2.08 nM)
